These measurements were taken from ChEMBL document CHEMBL1142535.

# tested target: Androgen receptor (Homo sapiens)
# Sequence (P10275 whole entry): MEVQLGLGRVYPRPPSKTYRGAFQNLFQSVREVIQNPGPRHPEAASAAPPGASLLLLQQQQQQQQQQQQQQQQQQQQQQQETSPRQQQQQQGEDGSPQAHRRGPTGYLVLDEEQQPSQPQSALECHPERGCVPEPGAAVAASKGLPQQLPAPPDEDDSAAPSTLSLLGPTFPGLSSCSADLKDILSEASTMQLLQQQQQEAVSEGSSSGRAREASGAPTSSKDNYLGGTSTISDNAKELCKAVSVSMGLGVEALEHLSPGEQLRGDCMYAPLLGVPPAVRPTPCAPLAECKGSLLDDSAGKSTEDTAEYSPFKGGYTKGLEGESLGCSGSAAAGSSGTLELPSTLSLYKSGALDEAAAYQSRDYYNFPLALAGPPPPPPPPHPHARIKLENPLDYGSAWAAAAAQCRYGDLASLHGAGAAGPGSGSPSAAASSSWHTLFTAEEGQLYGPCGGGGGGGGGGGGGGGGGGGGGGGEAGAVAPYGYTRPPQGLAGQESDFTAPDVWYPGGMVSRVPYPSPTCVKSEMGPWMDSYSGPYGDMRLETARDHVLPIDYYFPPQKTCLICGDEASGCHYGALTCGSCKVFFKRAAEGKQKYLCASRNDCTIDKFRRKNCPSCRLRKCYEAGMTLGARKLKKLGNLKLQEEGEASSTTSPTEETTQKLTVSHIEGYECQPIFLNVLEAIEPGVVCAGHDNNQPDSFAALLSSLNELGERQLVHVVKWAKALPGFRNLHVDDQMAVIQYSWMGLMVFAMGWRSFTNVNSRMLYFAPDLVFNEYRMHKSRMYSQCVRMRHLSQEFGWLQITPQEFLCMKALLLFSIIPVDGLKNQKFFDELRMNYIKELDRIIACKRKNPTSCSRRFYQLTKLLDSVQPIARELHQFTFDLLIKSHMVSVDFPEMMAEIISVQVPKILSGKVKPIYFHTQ
Would you mind telling me the reported IC50 of each entry?
Lab book: enter the figure in µM, no units written.

IN: Please report the recorded IC50 for N#Cc1ccc(C2CCCCC2O)cc1C(F)(F)F (racemic) .
OUT: 0.09

IN: Quick one: N#Cc1ccc([C@H]2CCCC[C@H]2O)cc1C(F)(F)F
OUT: 0.043

IN: Now try COc1cc(-c2ccccc2O)ccc1C#N .
OUT: 0.0201

----------
# protocol description: Apparent volume of distribution in Beagle dog at 0.8 mg/kg, iv after 24 hrs
# Type: ADME, organism-based, Canis lupus familiaris
# Set-up: dose 0.8 mg/kg, route intravenous
# condition: in vivo, read-out: Vdss
reported property: Vd (L/kg)
Answer in L/kg, number only, no unit symbol.

IN: Find the recorded Vd belonging to N#Cc1ccc([C@H]2CCCC[C@H]2O)cc1C(F)(F)F and report it.
OUT: 6.5

----------
# tested target: Progesterone receptor (Homo sapiens)
# Sequence (P06401 whole entry): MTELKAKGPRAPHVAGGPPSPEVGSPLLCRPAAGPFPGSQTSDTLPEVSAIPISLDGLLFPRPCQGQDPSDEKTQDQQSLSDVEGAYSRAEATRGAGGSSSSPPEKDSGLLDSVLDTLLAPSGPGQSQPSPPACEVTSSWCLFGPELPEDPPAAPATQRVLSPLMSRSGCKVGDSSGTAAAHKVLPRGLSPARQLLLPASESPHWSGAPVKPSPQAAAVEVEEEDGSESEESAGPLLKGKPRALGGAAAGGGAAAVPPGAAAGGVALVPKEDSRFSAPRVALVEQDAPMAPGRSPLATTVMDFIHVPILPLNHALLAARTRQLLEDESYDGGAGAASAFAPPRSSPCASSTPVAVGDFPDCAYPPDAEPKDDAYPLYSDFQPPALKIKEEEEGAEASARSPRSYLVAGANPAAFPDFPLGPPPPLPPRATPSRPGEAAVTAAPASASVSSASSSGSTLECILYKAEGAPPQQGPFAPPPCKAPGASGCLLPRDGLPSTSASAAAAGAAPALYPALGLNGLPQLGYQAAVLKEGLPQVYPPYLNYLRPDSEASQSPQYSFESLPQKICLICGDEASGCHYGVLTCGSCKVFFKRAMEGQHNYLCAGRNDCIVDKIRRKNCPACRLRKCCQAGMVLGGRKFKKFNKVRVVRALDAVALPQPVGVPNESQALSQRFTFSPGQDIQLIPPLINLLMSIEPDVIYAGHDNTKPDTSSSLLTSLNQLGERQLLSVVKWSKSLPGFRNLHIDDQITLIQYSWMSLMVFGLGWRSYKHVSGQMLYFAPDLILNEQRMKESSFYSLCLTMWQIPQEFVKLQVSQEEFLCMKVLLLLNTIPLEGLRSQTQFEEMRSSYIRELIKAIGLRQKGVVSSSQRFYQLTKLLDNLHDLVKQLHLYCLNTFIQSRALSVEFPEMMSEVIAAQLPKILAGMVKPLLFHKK
Would you kindly list pIC50 for each of these molecules?
The meaning of pIC50 here: minus log10 of the concentration in molar units.

IN: pIC50 lookup needed for C[C@H](c1ccccc1)N(C)c1cc(C(F)(F)F)c(C#N)cn1 , thanks.
OUT: 5.78

IN: # repeat for COc1cc(-c2ccccc2O)ccc1C#N
OUT: 5.49

IN: Next molecule up: CC1(C)C(=O)N(c2ccc(C#N)c(C(F)(F)F)c2)C(=O)N1CCCCO
OUT: 6.00
